assayTarget: human TRPV4 (hTRPV4/CHO cells) (Homo sapiens)
Construct: expressed in transfected cells; host or cells: CHO-K1
Sequence (Q9HBA0 whole entry): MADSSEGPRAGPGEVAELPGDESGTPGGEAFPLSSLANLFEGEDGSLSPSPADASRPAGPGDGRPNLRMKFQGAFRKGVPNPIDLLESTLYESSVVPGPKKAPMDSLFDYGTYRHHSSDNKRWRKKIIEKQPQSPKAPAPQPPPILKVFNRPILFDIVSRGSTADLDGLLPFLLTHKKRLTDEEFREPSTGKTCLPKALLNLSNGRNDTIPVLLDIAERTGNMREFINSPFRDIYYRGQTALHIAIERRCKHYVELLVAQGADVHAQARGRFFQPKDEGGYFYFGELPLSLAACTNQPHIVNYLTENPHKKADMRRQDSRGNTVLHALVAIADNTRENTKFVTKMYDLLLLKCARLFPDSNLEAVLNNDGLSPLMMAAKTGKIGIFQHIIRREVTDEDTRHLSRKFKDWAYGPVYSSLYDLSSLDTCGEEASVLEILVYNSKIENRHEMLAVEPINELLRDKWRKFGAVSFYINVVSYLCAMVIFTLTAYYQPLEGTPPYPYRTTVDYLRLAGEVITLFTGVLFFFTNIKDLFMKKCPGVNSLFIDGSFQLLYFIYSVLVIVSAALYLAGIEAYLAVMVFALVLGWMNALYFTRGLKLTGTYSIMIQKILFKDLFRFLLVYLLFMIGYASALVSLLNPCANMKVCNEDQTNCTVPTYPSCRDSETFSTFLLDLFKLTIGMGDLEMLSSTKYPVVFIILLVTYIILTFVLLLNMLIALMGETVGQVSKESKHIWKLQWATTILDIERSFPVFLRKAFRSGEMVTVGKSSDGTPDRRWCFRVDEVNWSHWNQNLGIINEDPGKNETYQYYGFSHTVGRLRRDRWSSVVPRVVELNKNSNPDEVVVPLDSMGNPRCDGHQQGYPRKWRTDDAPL
assayInfo: Test Example 1: TRPV4 inhibitory activity (IC50 value), 4α-PDD stimulation, Fluo4 calcium fluorescence (FLIPR TETRA)
Format: cell-based
conditionLabel: Test Example 1, 4α-PDD stimulation, read-out: Test 1 IC50
measurementKind: IC50

- compound: "CC(C)(F)C(=O)N1C[C@H](c2ccccc2)C[C@H]1C(=O)Nc1nc(-c2sc(CO)nc2CO)cs1"
  IC50: "100 to 1000 nM"

Batch request: IC50 per item, same order as input.
1. COc1ccccc1CC(=O)Nc1nc(-c2sc(C)nc2C)cs1
2. CC(=O)c1nc(C)sc1-c1csc(NC(=O)Cc2c(F)cccc2F)n1
3. Cc1nc(C)c(-c2csc(NC(=O)[C@H]3C[C@H](Cl)C3)n2)s1
4. Cc1nc(CO)sc1-c1csc(NC(=O)Cc2cnc(C(F)(F)F)cn2)n1
5. Cc1nc(C(=O)NCCO)c(-c2csc(NC(=O)Cc3c(F)cccc3F)n2)s1

Result:
1: < 100 nM; 2: 100 to 1000 nM; 3: < 100 nM; 4: < 100 nM; 5: 1000 to 8000 nM

Please state IC50 for every compound in the list that follows.
1. Cc1nc(C#N)sc1-c1csc(NC(=O)Cc2ccc(S(=O)(=O)C(F)(F)F)cc2)n1
2. O=C(Cc1ccc(S(=O)(=O)C(F)(F)F)cc1)Nc1nc(-c2sc(CO)nc2CN2CCOCC2)cs1
3. Cc1nc(C(C)O)sc1-c1csc(NC(=O)C2CN(c3ccc(C(F)(F)F)cc3)C2)n1 (racemic)
4. Cc1nc(C)c(-c2csc(NC(=O)Cn3cc(-c4ccc(S(C)(=O)=O)cc4)cn3)n2)s1
5. Cc1nc(C)c(-c2nc(NC(=O)Cc3c(F)cccc3F)sc2C)s1
6. Cc1nc(C)c(-c2csc(NC(=O)Cc3cccc(N(C)C(=O)c4ccccc4)c3)n2)s1
7. Cc1nc(CO)sc1-c1csc(NC(=O)[C@H]2C[C@H](F)C2)n1
8. CCOCC(=O)NCc1nc(CO)sc1-c1csc(NC(=O)Cc2ccc(S(=O)(=O)C(F)(F)F)cc2)n1

Result:
100 to 1000 nM
100 to 1000 nM
< 100 nM
100 to 1000 nM
1000 to 8000 nM
100 to 1000 nM
< 100 nM
< 100 nM

State recorded IC50 for all listed compounds.
1. O=C(Nc1nc(-c2sc(CO)nc2CCCN2CCOCC2)cs1)C1CN(c2ccc(C(F)(F)F)cc2)C1
2. Cc1nc(C)c(-c2csc(NC(=O)CN3CCOC(c4ccccc4)C3)n2)s1 (stereo not shown)

Result:
< 100 nM
100 to 1000 nM
